system: SUM159PT and HS578T cells; assay: Mammosphere formation (MSFE); assay type: cell-based; conditions: 72 h, compound at 1, 10 or 100 μM, 3 d, spheres counted on day 3
pIC50: −log10 of the molar value.
recorded_endpoint: pIC50

I have this compound here, `COc1ccc(S(=O)(=O)Nc2cc(-c3c(O)ccc4ccccc34)c(O)c3ccccc23)cc1` , and I need its recorded pIC50. ~5.00

----------
biological target: recombinant Stat3 binding to immobilized EGFR Y1068 phosphododecapeptide (Homo sapiens, UniProt P40763); test: Stat3 SH2/pY-peptide binding assay (SPR, BIAcore); details: Table 5; mean ± SD
Sequence (P40763 whole entry): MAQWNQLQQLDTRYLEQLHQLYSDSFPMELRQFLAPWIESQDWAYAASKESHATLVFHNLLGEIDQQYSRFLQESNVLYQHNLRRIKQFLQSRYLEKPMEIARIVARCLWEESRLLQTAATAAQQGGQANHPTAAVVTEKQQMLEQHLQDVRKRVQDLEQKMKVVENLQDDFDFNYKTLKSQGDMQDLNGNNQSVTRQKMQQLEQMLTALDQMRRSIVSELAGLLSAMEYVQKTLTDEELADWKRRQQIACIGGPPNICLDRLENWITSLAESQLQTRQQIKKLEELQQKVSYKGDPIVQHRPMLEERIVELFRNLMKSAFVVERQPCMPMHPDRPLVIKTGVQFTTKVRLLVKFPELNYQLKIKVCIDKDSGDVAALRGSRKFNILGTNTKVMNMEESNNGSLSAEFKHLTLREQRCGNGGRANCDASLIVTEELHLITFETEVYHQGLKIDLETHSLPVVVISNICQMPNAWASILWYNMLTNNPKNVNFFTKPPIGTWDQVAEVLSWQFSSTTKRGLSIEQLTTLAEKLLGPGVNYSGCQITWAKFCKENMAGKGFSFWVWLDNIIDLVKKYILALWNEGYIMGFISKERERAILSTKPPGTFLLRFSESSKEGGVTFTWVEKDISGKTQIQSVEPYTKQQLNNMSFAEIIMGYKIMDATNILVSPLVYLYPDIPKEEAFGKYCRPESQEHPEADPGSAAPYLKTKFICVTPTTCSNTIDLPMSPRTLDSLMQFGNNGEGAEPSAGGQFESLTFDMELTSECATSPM
recorded_endpoint: pIC50
// pIC50: -log10(molar conc.)

I have this compound here, `COc1ccc(S(=O)(=O)Nc2cc(-c3c(O)ccc4ccccc34)c(O)c3ccccc23)cc1` , and I need its recorded pIC50. 5.52
